assayed_target: Adenosine A1 (Homo sapiens, UniProt P30542)
Sequence (P30542 whole entry): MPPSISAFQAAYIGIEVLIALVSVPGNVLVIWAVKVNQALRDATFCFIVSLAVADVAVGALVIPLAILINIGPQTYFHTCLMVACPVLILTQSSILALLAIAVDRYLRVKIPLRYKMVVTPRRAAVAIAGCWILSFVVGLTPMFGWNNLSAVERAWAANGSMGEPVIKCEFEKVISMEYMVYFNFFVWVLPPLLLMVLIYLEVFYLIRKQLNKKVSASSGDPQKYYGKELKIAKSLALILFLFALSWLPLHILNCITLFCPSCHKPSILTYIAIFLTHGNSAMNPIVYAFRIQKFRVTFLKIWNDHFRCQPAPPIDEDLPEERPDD
test_protocol: Functional assay (luciferase reporter), inhibition of A1 adenosine receptor
Type: cell-based
Set-up: expressed in transfected cells; host or cells: CHO-DUKX-SRE-Luci-A1-44 (CHO-DUKX, vector pCineo)
condition_summary: Imax in % of the corresponding antagonist (CPX)
In this section, each of the compounds is paired with its reported A1 AR Imax.
measured_parameter: A1 AR Imax (%)

C#CCn1c(=O)c2c(nc(C#Cc3ccc(OC)c(OC)c3)n2C)n(CC)c1=O [drawing 618] ... 49
C#CCn1c(=O)c2c(nc(C#Cc3ccc(OC)c(OC)c3)n2C)n(CCCO)c1=O [drawing 622] ... 92
C#CCn1c(=O)c2c(nc(C#Cc3cccc(OC)c3)n2C)n(CCCO)c1=O [drawing 620] ... 90

----------
assayed_target: Adenosine A2B (Homo sapiens, UniProt P29275)
Construct: expressed in transfected cells; host or cells: HEK-293 cells
Sequence (P29275 whole entry): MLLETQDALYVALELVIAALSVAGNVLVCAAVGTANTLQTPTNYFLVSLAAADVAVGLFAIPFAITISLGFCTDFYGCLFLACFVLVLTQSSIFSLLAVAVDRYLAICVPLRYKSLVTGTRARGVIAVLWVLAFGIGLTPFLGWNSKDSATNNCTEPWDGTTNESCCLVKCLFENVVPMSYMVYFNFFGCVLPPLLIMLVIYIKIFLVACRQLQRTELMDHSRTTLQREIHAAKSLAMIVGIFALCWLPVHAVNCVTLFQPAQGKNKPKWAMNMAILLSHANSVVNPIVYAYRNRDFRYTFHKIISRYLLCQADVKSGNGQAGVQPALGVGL
test_protocol: Radioligand binding assay 2, Adenosine A2B
condition_summary: at 1 μmol/l; human recombinant HEK-293 cells, [3H]MRS 1754; read-out: A2B AR % inhibition of agonist binding
We begin with a simple list: items and their reported inhibition at 1 µM.
measured_parameter: inhibition at 1 µM

C#CCn1c(=O)c2c(nc(C#Cc3ccc(OC)c(OC)c3)n2C)n(CCCO)c1=O [drawing 612] ... 14%
C#CCn1c(=O)c2c(nc(C#Cc3cccc(OC)c3)n2C)n(CCCO)c1=O [drawing 611] ... 6%
C#CCn1c(=O)c2c(nc(C#Cc3ccc(OC)c(OC)c3)n2C)n(CC)c1=O [drawing 608] ... 14%
C#CCn1c(=O)c2c(nc(C#Cc3ccc(OC)c(OC)c3)n2C)n(C)c1=O [drawing 609] ... 19%
C#CCn1c(=O)c2c(nc(C#Cc3cccc(C)c3)n2C)n(CCCO)c1=O [drawing 613] ... 17%
C#CCn1c(=O)c2c(nc(C#Cc3cccc(OC)c3)n2CC#C)n(C)c1=O [drawing 610] ... 22%
C#CCn1c(=O)c2c(nc(C#Cc3cccc(OC)c3)n2C)n(C)c1=O [drawing 607] ... 19%

----------
# Ki listing for each entry below
assayed_target: A2A-adenosine receptor human recombinant (Homo sapiens)
Construct: expressed in transfected cells
Sequence (P29274 whole entry): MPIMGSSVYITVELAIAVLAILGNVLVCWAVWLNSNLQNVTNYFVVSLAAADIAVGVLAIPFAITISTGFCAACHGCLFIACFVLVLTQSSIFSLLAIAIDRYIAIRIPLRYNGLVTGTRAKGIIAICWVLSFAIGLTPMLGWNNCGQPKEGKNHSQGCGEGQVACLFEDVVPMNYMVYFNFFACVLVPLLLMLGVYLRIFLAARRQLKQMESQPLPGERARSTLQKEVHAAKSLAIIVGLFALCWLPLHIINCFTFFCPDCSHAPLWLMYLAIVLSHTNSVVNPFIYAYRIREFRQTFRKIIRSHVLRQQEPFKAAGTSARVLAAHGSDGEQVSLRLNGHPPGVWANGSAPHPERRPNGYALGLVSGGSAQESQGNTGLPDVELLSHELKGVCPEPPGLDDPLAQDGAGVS
test_protocol: Radioligand binding assay 1, human recombinant A2A adenosine receptor
condition_summary: human recombinant, [3H]MSX-2; read-out: A2A-adenosine receptor human recombinant [3H] MSX-2 Ki
measured_parameter: Ki (µM)

C#CCn1c(=O)c2c(nc(C#Cc3ccc(OC)c(OC)c3)n2C)n(Cc2cccs2)c1=O [drawing 589] ... 0.416
C#CCn1c(=O)c2c(nc(C#Cc3cccc(Cl)c3)n2C)n(C)c1=O [drawing 556] ... 0.423
C#CCn1c(=O)c2c(nc(C#Cc3ccc(OC)c(OC)c3)n2C)n(CCCOC)c1=O [drawing 581] ... 0.123
C#CCn1c(=O)c2c(nc(C#Cc3ccc(OC)c(OC)c3)n2C)n(C)c1=O [drawing 554] ... 0.0364
C#CCn1c(=O)c2c(nc(C#Cc3ccc(OC)c(OC)c3)n2C)n(Cc2cnc[nH]2)c1=O [drawing 593] ... 0.103
C#CCn1c(=O)c2c(nc(C#Cc3ccsc3)n2C)n(CC)c1=O [drawing 599] ... 0.0825
C#CCn1c(=O)c2c(nc(C#Cc3ccc(OC)c(OC)c3)n2C)n(C)c1=O [drawing 601] ... 0.0897
C#CCn1c(=O)c2c(nc(C#Cc3cccc(OCCN(C)C)c3)n2C)n(C)c1=O [drawing 560] ... 0.0903
